Source: ChEMBL document CHEMBL4842352

tested on: ONS-76; experiment: Cytotoxicity against human ONS-76 cells assessed as reduction in cell viability incubated for 72 hrs by MTT assay; format: functional, cell-based; conditions: ONS-76, 72 h
Field: IC50. Provide a value for each of the molecules that follow.
Please respond with the number in µM and leave the unit unwritten.

So what does the record say about IC50 for COc1cc(NC(=O)Nc2ccc(O)c3ccccc23)cc(OC)c1OC ?
2.5

Now consider COc1cc(N(C)C(=O)c2cccc3ccccc23)cc(OC)c1OC and answer again.
65.7

Now consider COc1cc(NC(=O)Nc2cccc3cc4ccccc4cc23)cc(OC)c1OC and answer again.
10

Now consider COc1cc(NC(=O)Nc2cccc([N+](=O)[O-])c2)cc(OC)c1OC and answer again.
79.6

Now consider COc1cc(NC(=O)Nc2ccc(F)cc2)cc(OC)c1OC and answer again.
63.2
